B1: tRNA (parent)
chain: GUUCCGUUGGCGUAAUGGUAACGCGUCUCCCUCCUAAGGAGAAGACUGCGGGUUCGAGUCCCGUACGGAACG

Variants of: B1
experimental details: yeast fitness relative to wild type (ratio to wild type); higher = fitter; tRNA-Arg(CCU), competitive growth, 37 C, YPD
This sample holds only a part of the variants without activity.
reported metric: yeast fitness

INSERT INTO assay_data (construct_sequence, reported_metric, val) VALUES
  ('GUUCCGUUGGCGUAAUGGUAACGCGUCUCCCUUCUAAGGAGCAGACUGCGGGUUCGAGUCCCGCACGGAGCG [C33U A42C U64C A70G]', 'yeast fitness', '≤ 0.5'),
  ('GUUCCGUUGGCGUAAAGGUAACCCGACUUCCUCCUAAGGAGUAGACUACGGGUUCGAGUCCCGUACAGAACG [U16A G23C U26A C29U A42U G48A G67A]', 'yeast fitness', '≤ 0.5'),
  ('GUUACGGUGGCCUAAUGGUAACGCGUCUCCCUCCUAAGGAGAAGACUGCGGGUUCGAGUCCCGUACGGAACG [C4A U7G G12C]', 'yeast fitness', 0.549),
  ('GUUCCGAAGCCGUAAUGGUAACGCGUGUCCCUCGUAAGGAGGAGACUGCGGGUUUGAGUCCCGUACGGAACG [U7A U8A G10C C27G C34G A42G C55U]', 'yeast fitness', '≤ 0.5'),
  ('GUUCCGUUGGCGUAAUGGUAACGCGUUUCACUCCUAAGGAGUAGACUGCGGGUUCGUGUCCCAUCCGGAACG [C27U C30A A42U A57U G63A A65C]', 'yeast fitness', 0.597),
  ('GUUCCGUUGGGGUAUUGGUAACGCGUCUCCCUCCUAAAGAGAAGAGUGCGGGUUCCAGUCCCGUACGGAACG [C11G A15U G38A C46G G56C]', 'yeast fitness', '≤ 0.5'),
  ('GUUCCAUUGGCGUAAUGGUAACGCGUCUCCCUCCUAUGGAGAAGACUGCGGGUUCGAGUCCUGUACGGAACG [G6A A37U C62U]', 'yeast fitness', '≤ 0.5'),
  ('GUUCCGUUGGCGUAAUGGUAACGCGUCUCCCCCCUAAGGAGAAGGCUGCGGGUUCGUGUCCCGUACGGAACG [U32C A45G A57U]', 'yeast fitness', '≤ 0.5'),
  ('GUUCCGUUGGCGUAAUGGUAACGCGUCUCCCUCCUAAGGAGAAGACUGCGGGUUCGAGUCCUGUACGAAACG [C62U G68A]', 'yeast fitness', 0.838),
  ('GUUCCGUUGGCGUAAUGGUAACGCGACUCCCUCCUAAGGAGAACACUGCGGGUUCGCGUCCCGUACGGUACG [U26A G44C A57C A69U]', 'yeast fitness', 0.653),
  ('GUUCCGUUGGCGUAAUGGUAACGCGUCUCCCUCCUAAGGAGAAGACUACGGGUUCGAGUCCCAUACGGAUCG [G48A G63A A70U]', 'yeast fitness', 0.811),
  ('GUUCCGUUGGCAUAAUGGUAAGGAGUCUCCCUCCUAAAGAGAAGACUGCGGGUUCGAGUCCCGUACGGAACG [G12A C22G C24A G38A]', 'yeast fitness', '≤ 0.5'),
  ('GUUCCGUUGGCGUCAUGGUAACGUGUCUCCUUCCUAAGGAGAAGACUGCGGGCUCGAGUCGCGUACGGAACG [A14C C24U C31U U53C C61G]', 'yeast fitness', '≤ 0.5'),
  ('GGUCCGUUGGCGUAAUGGUAACGCGUCUCCCUCUCAAGGAGAAGACUGCGGGUUCGAGUCCCGUACGGAACG [U2G C34U U35C]', 'yeast fitness', '≤ 0.5'),
  ('GUACCGUUGGUGUAAUGGUAACGCGUCUCCCUCCCAAGGAGAAGACUGCGGGUUCGAGUCCCGUCCGGAACG [U3A C11U U35C A65C]', 'yeast fitness', '≤ 0.5'),
  ('GUUCCGUUGGCGUAAUGGUAACGCGUCUCUCUCCUAAGGAGAAGCCUACGGGUUCGAAUCCCGUACUGAACG [C30U A45C G48A G58A G67U]', 'yeast fitness', '≤ 0.5'),
  ('GUUCCGUUGGCGUAAUGGUAACGUGUCUCCCUCCUAAGGAGAAGACUGCGCGUUCGAGUCCCGUACGAAACG [C24U G51C G68A]', 'yeast fitness', '≤ 0.5'),
  ('GUUCCGUUGGCGCAAUGGUAACGCGUCUCCCUCCUAAGGAGAAGACUGCGCGUUCGAGUCCCGUAAGGAACG [U13C G51C C66A]', 'yeast fitness', '≤ 0.5'),
  ('GUUACGUUGGCGCAAUGGUCACGCGUCUCCCUCAUAAGCAGAUGACUGCGGGUUCGAGUCCCGUACGGAACG [C4A U13C A20C C34A G39C A43U]', 'yeast fitness', '≤ 0.5'),
  ('GUUCCGUUGGCGUAAUGGUAACGCGUCUCCCUCCUAAGGAGAAGACUGCGGGUCCGAGUCACGUACGUAACG [U54C C61A G68U]', 'yeast fitness', '≤ 0.5'),
  ('GUACCGUUGGCGUAAUGGAAACGCGUCUCCCUCCUAAGGAGUACACUGCGGGUACGAGUCCCGUACGGAACG [U3A U19A A42U G44C U54A]', 'yeast fitness', '≤ 0.5'),
  ('GUUCCGUUAGCGUAAUGGUAACGCGUCUCCCUCCUAAGGAGAAGACUGCAGGUUUGAGUCCCGUACGGAACG [G9A G50A C55U]', 'yeast fitness', 0.59),
  ('GCUCCGUUGGCGUAAUGGUAACGCGUCUCCCACCUAAGGAGAAGACUGCGGGUUCGAGUCCCGUGCGGAACG [U2C U32A A65G]', 'yeast fitness', '≤ 0.5'),
  ('GUUCCGUUGGAGUGAUGGUAACGCGUCUCCCUCCUAAGGAGACGACUGCGGGUUCGGGCCCCAUACGGAGCG [C11A A14G A43C A57G U59C G63A A70G]', 'yeast fitness', '≤ 0.5'),
  ('GUUCCGUUGGCGUAAUGGUGACGCGUCUCCCUCCUAAGGAGAAGACUGAGGGUUCGAGUCCCGUGCGGAACG [A20G C49A A65G]', 'yeast fitness', 0.619),
  ('GUUCCGUUGGCGUAAUCGUAACGCGUCUCCCUCCUAAGGAGAAGACUGGGGGUUCGAGUCCCGUACGGAACG [G17C C49G]', 'yeast fitness', 0.743),
  ('GUUCCGUUGGCGUAAUGGUAACACGUCUCCCUCCUAAGGGGAAGAGUGCGGGUUCGAGUCCCGUACGGAACG [G23A A40G C46G]', 'yeast fitness', '≤ 0.5'),
  ('GUUCCGUUGGCGUAAUGGUAACGCGACUCCGUCCUAAGGAGAAGACUGCGGGUUCGAGUCCCCUACGGAACG [U26A C31G G63C]', 'yeast fitness', '≤ 0.5'),
  ('GUUCCGUUGGCGUAAUGGUUACGUGUCUCCCUCCUAAGGAGCAGACUGCGGGUUCGAGUCCGGUACGGAACG [A20U C24U A42C C62G]', 'yeast fitness', 0.735),
  ('GUUCCGUUAGCGUAAUGGUAACGCGUCACCCUCCUAAGGAGAAGGCUGCGGGUUCGAGUCCCGUACGGAACG [G9A U28A A45G]', 'yeast fitness', 0.645),
  ('GUUCCGUUGGCGUAGUGGUAACGCGGCUCCCUCCUAAGGACACGACUGCGGGUUCGAGUCCCGUACGGAACG [A15G U26G G41C A43C]', 'yeast fitness', '≤ 0.5'),
  ('GUUCCGUUGGCGUAAGGGUAACGCGUCUUCCUCCUAAGGAGAAGACUGCGGGUUCGAGUCCCGUACGGAACG [U16G C29U]', 'yeast fitness', 0.806),
  ('GUUCCGUUGGCGUAAUGGUAACGCGUUUCCCUCCUAAGGUGAAGACUGCGGGUUCGAGUCCCGUACGGAACG [C27U A40U]', 'yeast fitness', 0.925),
  ('GUUCCGUUGGGGUAAUGGUAACGCGUCUACCUCCUAAGGAGAAGACUGCGGGUACGUGUCCCGUACGGAACG [C11G C29A U54A A57U]', 'yeast fitness', '≤ 0.5'),
  ('GUUCCUUUGGCGUAAUGCUAACGCGUCUCCCUCCUAAGGAGAAGACUGGGGGUUCGAGUCCCGUACGGAACG [G6U G18C C49G]', 'yeast fitness', '≤ 0.5'),
  ('GUUCCGUUGGGGUAUUGGUAGCGCGUCUCCCUCCUAACGAGAAGACUGCGGGUUCGAGUCCCGUACGGAACG [C11G A15U A21G G38C]', 'yeast fitness', 0.604),
  ('GAUCCGUUGGCGUAGUGGUAACGCGUCUCCCUCCUAAGGAGAAGACUGCGGGUUCGAGUCCCGUACGGAACG [U2A A15G]', 'yeast fitness', 0.981),
  ('GUUCCCUUGGCGUAAUGGUAACGCGUCUCCCUCCUAAGGAGAAGACUGCGGGUUCGAGUCCCCUACGGGACG [G6C G63C A69G]', 'yeast fitness', '≤ 0.5');
